Recorded values, source paper PMC9352680.

- target of assay: T1, PUF4 RNA-binding domain (Saccharomyces cerevisiae, UniProt P25339 537-888)
- T1 sequence: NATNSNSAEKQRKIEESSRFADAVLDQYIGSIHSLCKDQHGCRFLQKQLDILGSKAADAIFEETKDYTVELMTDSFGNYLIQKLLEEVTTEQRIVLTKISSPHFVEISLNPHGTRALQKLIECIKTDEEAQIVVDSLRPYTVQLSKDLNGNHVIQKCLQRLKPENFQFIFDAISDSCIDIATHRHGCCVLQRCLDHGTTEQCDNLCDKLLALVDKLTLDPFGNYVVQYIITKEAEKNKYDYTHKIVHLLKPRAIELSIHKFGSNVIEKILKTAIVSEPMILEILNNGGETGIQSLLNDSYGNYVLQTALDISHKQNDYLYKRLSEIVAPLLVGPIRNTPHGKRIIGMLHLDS
- measurement protocol: Mg; RNA-MaP; 20 mM Na-HEPES pH 7.4, 30 mM KOAc, 0.75 mM MgCl2, 0.1% Tween-20, 5% glycerol, 0.1 mg/mL BSA, 2 mM DTT; 25 C; 0.0125-409.6 nM protein
- test conditions: tags: N-His6-TEV cleaved; C-SNAP kept, Cy3B-labelled; label: tethered on chip by stalled RNA polymerase
Readings of Kd for the listed binders

binder	unit of measure	inequality symbol	Kd
Ie_S2_P5E.1_K5.1_C5.1_H5.1_[+2TTC]_A5.1_F5.1_T5.1 (ssRNA) RNA: UUUGAUUAAUAUGAUAUCGUUCUUUCUUGUUCUAUUAUUAUUCUUUCUCGAUAUCAUAUUAAUCUUU	nM	=	6.91
Ib_S2_P5E.1_K5.1_C5.1_H5.1_[A4T]_A5.1_F5.1_[T8C]_T5.1 (ssRNA) RNA: UUUGAUUAAUAUGAUAUCGUUCUUUCUUGUUUUACUAUUCUUUCUCGAUAUCAUAUUAAUCUUU	nM	=	25
UCUCUUUGUAACCUUCUCUU (ssRNA) [Ic_S1_P3E.1_K3.1_C3.1_H3.1_A3.1_[T5A]_[A6C]_F3.1_[T7C]_[A8T]_T3.1]	nM	=	81
Ic_S4_P3E.1_K3.1_C3.1_H3.1_A3.1_[A6T]_F3.1_[T7G]_[A8G]_T3.1 (ssRNA) RNA: UUUGACAACUGAUCGUUCUUUCUUGUAUUGGUUCUUUCUCGAUCAGUUGUCUUU	nM	=	2130
ACAAACACUAUAUUAACAAAC (ssRNA) [Ib_S3_P4E.1_K4.1_C4.1_H4.1_[T1A]_[G2C]_A4.1_F4.1_T4.1]	nM	>	2300
Id_ii_S2_P4E.3_K4.2_C4.2_[T-1A]_H4.2_A4.1_F4.1_T4.2_[G10A] (ssRNA) RNA: UUUGAUUAAUAUGAUAUCGUUCUUUCUCAUAUAUAUUAAUUUCUUUCUCGAUAUCAUAUUAAUCUUU	nM	=	10.1
UCUCUUCUUGUAUAUAGUUCUCUU (ssRNA) [Id_ii_S1_P3E.2_K3.1_C3.2_H3.1_A3.1_F3.1_T3.2_[T9G]_[A10T]]	nM	=	3.72
